Where do these numbers come from? They come from PubChem BioAssay (NCI).

test system: RPMI-8226 leukemia; experiment: NCI-60 one-dose screen, 48 h (100 = growth as untreated, 0 = no growth, -100 = all killed); conditions: 10 µM unless noted
The panel holds about 83,000 compounds, 20% with a hit somewhere; the sample as a whole holds those more often.
Label 1 when growth < 80%; otherwise 0.

>  <compound>
O=C(O)c1ccc(-n2c(=O)c3ccccc3c3ccccc3c2=O)cc1

>  <group>
0

$$$$
>  <compound>
CCC(C)NCC(=O)O (configuration not stated)

>  <group>
0

$$$$
>  <compound>
O=C(/C=C/CN1CCOCC1)Nc1cc2c(Nc3ccc(F)c(Cl)c3F)ncnc2cc1OCCOC(F)F

>  <group>
1

$$$$
>  <compound>
CC(Br)C(OC(=O)c1ccccc1Cl)c1cc2c(cc1Br)OCO2 (configuration not stated)

>  <group>
0

$$$$
>  <compound>
O=C(O)c1ccc(-n2cc(CNc3ccc(C(F)(F)F)cc3)c(-c3ccccc3)n2)cc1

>  <group>
1

$$$$
>  <compound>
CCc1cccc(C)c1NC(=O)c1sc2nc3c(cc2c1N)C(=O)CCC3

>  <group>
1

$$$$
>  <compound>
CC(C)C[C@H](NC(=O)[C@@H](Cc1ccccc1)n1ccc(Nc2ccccc2)cc1=O)B(O)O

>  <group>
1

$$$$
>  <compound>
O=C(O)C(Cc1ccccc1)N1C(=O)/C(=C/C(Cl)=C/c2ccc([N+](=O)[O-])cc2)SC1=S (configuration not stated)

>  <group>
1

$$$$
>  <compound>
Cc1ccccc1C(=O)c1ccccc1C(=O)O

>  <group>
0

$$$$
>  <compound>
O=S(=O)(O)CCl

>  <group>
0

$$$$
>  <compound>
O=c1[nH]c(-c2cn(-c3ccc(Cl)cc3)nn2)nc2ccccc12

>  <group>
0

$$$$
>  <compound>
CCSc1nnc(Nc2ccc(C(C)C)cc2)s1

>  <group>
1

$$$$
>  <compound>
COc1cc2c(cc1OCCCCn1c(-c3cc(=O)c4ccccc4o3)nc3ccccc31)N=C[C@@H]1CCCN1C2=O

>  <group>
1

$$$$
>  <compound>
CC(=O)Nc1ccc(S(=O)(=O)N2C(=O)CCC2C(=O)Nc2ccccc2)cc1 (configuration not stated)

>  <group>
1

$$$$
>  <compound>
CCOC(=O)c1cc(/C(=N\O)c2cc(OC)c(OC)c(OC)c2)n2cc(C)cc(C)c12

>  <group>
1

$$$$
>  <compound>
CC(=O)c1cc(C(=O)c2ccc3c(c2)Sc2ccccc2N3)c2cc(C)ccn12

>  <group>
1

$$$$
>  <compound>
ClC1=C(Cl)C(Cl)=C(Cl)C1=Cc1ccc(Cl)cc1Cl

>  <group>
1

$$$$
>  <compound>
O=C(CCCn1c2c(sc3ccccc32)c(=O)n2nnc(-c3ccccc3)c12)NCCc1cnc[nH]1

>  <group>
1

$$$$
>  <compound>
COc1cc(Br)c(OC)cc1Br

>  <group>
0

$$$$
>  <compound>
COc1ccc(-c2nnc(COc3ccc(NC(=O)Nc4ccc(Cl)c(C(F)(F)F)c4)cc3F)o2)cc1

>  <group>
1

$$$$
>  <compound>
COc1cc(/C=C2\C=C(c3ccc(F)cc3)N(Cc3ccccc3)C2=O)cc(OC)c1OC

>  <group>
1

$$$$
>  <compound>
O=C(CC(O)c1ccncc1)c1ccccc1 (configuration not stated)

>  <group>
0

$$$$
>  <compound>
CC(C)C(C(=O)CCN(C)C)c1ccc(Cl)cc1 (configuration not stated)

>  <group>
1

$$$$
>  <compound>
COc1cc(NC(=O)CSc2nc3ccc(C)cc3c(=O)n2-c2ccccc2)cc(OC)c1OC

>  <group>
1

$$$$
>  <compound>
CC/C=C\C/C=C\C[C@H]1C/C=C2/C(=O)C=C[C@H]2C/C=C\CCC(=O)O1

>  <group>
1

$$$$
>  <compound>
Cc1cc(N/C=c2\sc3ncnn3c2=O)no1

>  <group>
0

$$$$
>  <compound>
Nc1ccc(S(=O)(=O)c2ccc(Cl)cc2)cc1

>  <group>
0

$$$$
>  <compound>
Nc1nc(-c2cc3ccccc3o2)cc(=O)c(=O)[nH]1

>  <group>
0

$$$$
>  <compound>
O=C(CNC(=O)c1cccc2ccccc12)Nc1ccccc1Oc1ccccc1

>  <group>
1

$$$$
>  <compound>
CC(=O)OCC1OC(OCC2OC(OC(C)=O)C(OC(C)=O)C(OC(C)=O)C2OC(C)=O)C(OC(C)=O)C(OC(C)=O)C1OC(C)=O (configuration not stated)

>  <group>
0

$$$$
>  <compound>
O=C(/C=C/CN1CCOCC1)Nc1cc2c(Nc3cccc(Cl)c3F)ncnc2cc1OCCOC(F)F

>  <group>
0

$$$$
>  <compound>
CCc1c(C(=O)Nc2ccc3ccccc3c2)[nH]c(C)c1C(C)=O

>  <group>
1

$$$$
>  <compound>
COc1cccc(NC(=O)Cn2cc3c(=O)oc4ccccc4c3n2)c1

>  <group>
0

$$$$
>  <compound>
Cc1nn(-c2ccc(Cl)cc2)c(=O)n1CCOc1ccccc1Cl

>  <group>
0

$$$$
>  <compound>
Oc1ccc(N=Cc2ccccc2)cc1

>  <group>
1

$$$$
>  <compound>
CC(=O)Nc1nc(C(=O)N2N=C(C)/C(=C/c3cccs3)C2=O)cs1

>  <group>
0

$$$$
>  <compound>
CCN(Cc1ccc(CN(CC)C(=O)C(Cl)(Cl)Cl)cc1)C(=O)C(Cl)(Cl)Cl

>  <group>
1

$$$$
>  <compound>
CCC1CCc2nc3sc(C(=O)Nc4ccccc4F)c(N)c3cc2C1 (configuration not stated)

>  <group>
1

$$$$
>  <compound>
CCN(Cc1ccc(CN(CC)C(=O)C(Br)Br)cc1)C(=O)C(Br)Br

>  <group>
1

$$$$
>  <compound>
CC(C)(C)c1cc(-c2nc3ccc(N4CCN(CCO)CC4)cc3[nH]2)cc(C(C)(C)C)c1O

>  <group>
1

$$$$
>  <compound>
C=C1C(=O)O[C@H]2[C@H]1CC/C(Cn1cc(-c3ccccc3C(F)(F)F)nn1)=C\CC[C@@]1(C)O[C@@H]21

>  <group>
1

$$$$
>  <compound>
CNC(=O)Cc1nc(-c2cccc(NS(=O)(=O)c3c(F)cccc3F)c2F)c(-c2ccnc(Nc3ccccc3)n2)s1

>  <group>
0

$$$$

* * *

Each item that follows carries a reported growth.
test system: HOP-62 NSCLC; experiment: NCI-60 one-dose screen, 48 h (100 = growth as untreated, 0 = no growth, -100 = all killed); details: 10 µM unless noted
About 83,000 compounds went through this panel and 20% of them were active in at least one assay; those are over-represented in the sample as a whole. Calls of active or inactive are those of the source. Rule for the calls: active = growth percent below 10; inactive = the rest.

>  <molecule>
COC1=CC(c2ccc[nH]2)=N/C1=C\c1[nH]c(C)c(CCCn2cc(CCCCCCCCC[C@@H]3Cc4cc(O)ccc4C4CC[C@]5(C)[C@@H](O)CC[C@H]5C43)nn2)c1C (some centres undefined)

>  <growth>
60.3% (inactive)

$$$$
>  <molecule>
C=C1C(=O)O[C@H]2[C@H]1CC/C(COC(=O)NCc1cc(OC)c(OC)c(OC)c1)=C\CC[C@@]1(C)O[C@@H]21

>  <growth>
80.4% (inactive)

$$$$
>  <molecule>
CCCCCC(=O)OCc1ccccc1

>  <growth>
97% (inactive)

$$$$
>  <molecule>
NC(=O)c1cccc(N2Cc3ccccc3OC3=C2C(=O)c2c(O)ccc(O)c2C3=O)c1

>  <growth>
-42% (active)

$$$$

* * *

Tested on: HCT-15 colon
Experiment: NCI-60 one-dose screen, 48 h (100 = growth as untreated, 0 = no growth, -100 = all killed)
Details: 10 µM unless noted
Experimental: Growth inhibition of the HCT-15 human tumor cell line is measured as a screen for anti-cancer activity. Cells are grown in 96 well plates and exposed to the test compound for 48 hours. Compounds are tested at a single concentration, which is 10^-5 M for most compounds. The reported endpoint is percent growth (GI% or GIPRCNT), where numbers from 0 - 100% represent growth inhibition, and numbers from -100% - 0 represent cell death. For example, a value of 40 represents 60% growth inhibition. […]
About 83,000 compounds went through this panel and 20% of them were active in at least one assay; those are over-represented in the sample as a whole.
Assign fulfilled whenever growth does not fall below 40%; assign not fulfilled whenever it does.

>  <compound>
O=C(/C=C/CN1CCOCC1)Nc1cc2c(Nc3cccc(Cl)c3F)ncnc2cc1OCCOC(F)F

>  <group>
fulfilled

$$$$
>  <compound>
O=c1cc(C2NCCc3c2[nH]c2ccccc32)c2c(ccc3ccccc32)o1 (stereo not given)

>  <group>
fulfilled

$$$$
>  <compound>
COc1ccc(S(=O)(=O)N2CCN(c3cc4c(cc3F)c(=O)c(C(=O)O)cn4C3CC3)CC2)c(OC)c1

>  <group>
fulfilled

$$$$
>  <compound>
COc1cc(NCCN=C(N)NC(N)=NC(C)C)c2ncccc2c1

>  <group>
fulfilled

$$$$
>  <compound>
COc1ccc(NC(=S)/N=c2\oc3c(OC)cccc3cc2-c2cc3ccccc3[nH]2)cc1

>  <group>
fulfilled

$$$$
>  <compound>
N=C(N)c1ccc(-c2ccc(-c3ccc(Cl)cc3)o2)nc1

>  <group>
not fulfilled

$$$$
>  <compound>
O=C(COc1ccccc1)N1N=C(c2ccc(Cl)cc2)CC1c1c[nH]c2ccccc12 (stereo not given)

>  <group>
fulfilled

$$$$
>  <compound>
O=[N+]([O-])c1cccc(-c2cc(-c3cc(Br)ccc3O)[nH]n2)c1

>  <group>
not fulfilled

$$$$
>  <compound>
CCNC(=O)CCCCC(=O)c1c(C)[nH]c(/C=C2\N=C(c3ccc[nH]3)C=C2OC)c1C

>  <group>
not fulfilled

$$$$
>  <compound>
C=CCN=C1NC(=O)/C(=C/c2cc(C(C)(C)C)c(O)c(C(C)(C)C)c2)S1

>  <group>
fulfilled

$$$$
